Target: UniProt:P21554
Sequence (P21554 whole entry): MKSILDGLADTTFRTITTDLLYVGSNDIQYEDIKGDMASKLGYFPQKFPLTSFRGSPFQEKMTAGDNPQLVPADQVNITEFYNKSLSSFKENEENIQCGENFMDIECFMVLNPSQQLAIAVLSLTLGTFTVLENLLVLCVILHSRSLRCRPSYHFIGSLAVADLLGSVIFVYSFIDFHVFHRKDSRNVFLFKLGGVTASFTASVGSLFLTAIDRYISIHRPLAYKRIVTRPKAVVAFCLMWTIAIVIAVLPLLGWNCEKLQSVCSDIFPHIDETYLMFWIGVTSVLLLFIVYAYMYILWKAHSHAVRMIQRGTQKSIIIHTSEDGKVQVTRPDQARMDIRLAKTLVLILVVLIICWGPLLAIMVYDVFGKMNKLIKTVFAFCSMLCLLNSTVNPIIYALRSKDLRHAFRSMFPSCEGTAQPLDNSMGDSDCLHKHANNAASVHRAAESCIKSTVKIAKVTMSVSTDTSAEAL
Assay: Positive allosteric modulation of CB1 receptor (unknown origin) expressed in HEK293T cell membranes assessed as increase in [3H]CP55,940 binding by liquid scintillation counting method
Class (by Kb) -- low band = under 200 nM, middle band = from 200 nM up to 700 nM, high band = 700 nM and over

Please review the following examples before continuing.
INSERT INTO results (item_smiles, classification) VALUES
  ('O=C(Nc1ccc(Cl)cc1)Nc1cccc(-c2ccnc(N3CCCC3)n2)c1', 'middle band'),
  ('CN(C)c1ccnc(-c2cccc(NC(=O)Nc3ccc(C(F)(F)F)cc3)c2)n1', 'low band'),
  ('CN(C)c1nccc(-c2cccc(NC(=O)Nc3ccc(I)cc3)c2)n1', 'high band'),
  ('O=C(Nc1ccc(Cl)cc1)Nc1cccc(-c2nccc(N3CCCC3)n2)c1', 'middle band'),
  ('N#Cc1ccc(NC(=O)Nc2cccc(-c3nccc(N4CCCC4)n3)c2)cc1', 'low band');

Which bin, given its Kb, does CN(C)c1nccc(-c2cccc(NC(=O)Nc3ccc(C#N)cc3)c2)n1 occupy?
middle band

Could you do the same for CN(C)c1ccnc(-c2cccc(NC(=O)Nc3cccc(F)c3)c2)n1 , please?
middle band

One more compound: CCN(C)c1ccnc(-c2cccc(NC(=O)Nc3ccc(C#N)cc3)c2)n1
middle band

Now the compound N#Cc1ccc(NC(=O)Nc2cccc(-c3nccc(N4CCCCC4)n3)c2)cc1
low band

CN(C)c1ccnc(-c2cccc(NC(=O)Nc3ccc(I)cc3)c2)n1 ?
high band

What do you get for O=C(Nc1ccc(Br)cc1)Nc1cccc(-c2ccnc(N3CCCC3)n2)c1 ?
middle band

What about this compound? O=C(Nc1ccc(F)cc1)Nc1cccc(-c2nccc(N3CCCC3)n2)c1
middle band

What about this compound? N#Cc1cccc(NC(=O)Nc2cccc(-c3nccc(N4CCCC4)n3)c2)c1
high band

Thanks! And CCOC(=O)c1ccc(NC(=O)Nc2cccc(-c3nccc(N4CCCC4)n3)c2)cc1 ?
middle band

Next: N#Cc1ccc(NC(=O)Nc2cccc(-c3nccc(N4CCC4)n3)c2)cc1
middle band

Same again, this time with CC(=O)c1ccc(NC(=O)Nc2cccc(-c3nccc(N4CCCC4)n3)c2)cc1
high band

What about this compound? N#Cc1ccc(NC(=O)Nc2cccc(-c3ccnc(N4CCCC4)n3)c2)cc1
low band

For CCN(CC)c1ccnc(-c2cccc(NC(=O)Nc3ccc(C#N)cc3)c2)n1 then?
low band

Let us now turn to COc1ccc(NC(=O)Nc2cccc(-c3nccc(N4CCCC4)n3)c2)cc1
high band

Also need CN(C)c1nccc(-c2cccc(NC(=O)Nc3cccc(F)c3)c2)n1 , thanks.
high band

What do you get for CN(C)c1ccnc(-c2cccc(NC(=O)Nc3ccc(F)cc3)c2)n1 ?
high band

Could you do the same for CN(C)c1ccnc(-c2cccc(NC(=O)Nc3ccc(C#N)cc3)c2)n1 , please?
middle band

How about N#Cc1ccc(NC(=O)Nc2cccc(-c3nccc(NC4CC4)n3)c2)cc1 ?
low band

Here is the next compound: O=C(Nc1ccc(Br)cc1)Nc1cccc(-c2nccc(N3CCCC3)n2)c1
low band

CN(C)c1nccc(-c2cccc(NC(=O)Nc3ccc(F)cc3)c2)n1 ?
high band
